Conditions: 333.15 K; 100 kPa; Liquid; Sing-around technique in a fixed-path interferometer
readout label: speed of sound (m/s)

compound="CCCCCC(=O)O.O=C1CCCCCN1 [ε-caprolactam hexanoate]" readout_label="speed of sound" unit_abbrev=m/s assay_result=1336.8
compound="CCCCCC(=O)O.O=C1CCCN1 [γ-butyrolactam hexanoate]" readout_label="speed of sound" unit_abbrev=m/s assay_result=1298.6
compound="CC(=O)O.O=C1CCCCCN1 [ε-caprolactam acetate]" readout_label="speed of sound" unit_abbrev=m/s assay_result=1389.5
compound="CC(=O)O.O=C1CCCN1 [γ-butyrolactam acetate]" readout_label="speed of sound" unit_abbrev=m/s assay_result=1379
compound="O=C1CCCCCN1.O=CO [ε-caprolactam formate]" readout_label="speed of sound" unit_abbrev=m/s assay_result=1425.1
compound="O=C1CCCN1.O=CO [γ-butyrolactam formate]" readout_label="speed of sound" unit_abbrev=m/s assay_result=1406.8

====

Details: 298.15 K; 100 kPa; Liquid; Sing-around technique in a fixed-path interferometer
readout label: speed of sound (m/s)

molecule="CCCCCC(=O)O.O=C1CCCCCN1 [ε-caprolactam hexanoate]" unit_abbrev=m/s assay_result=1456
molecule="O=C1CCCCCN1.O=CO [ε-caprolactam formate]" unit_abbrev=m/s assay_result=1536
molecule="CCCCCC(=O)O.O=C1CCCN1 [γ-butyrolactam hexanoate]" unit_abbrev=m/s assay_result=1412.8
molecule="CC(=O)O.O=C1CCCCCN1 [ε-caprolactam acetate]" unit_abbrev=m/s assay_result=1507
molecule="CC(=O)O.O=C1CCCN1 [γ-butyrolactam acetate]" unit_abbrev=m/s assay_result=1496.7
molecule="O=C1CCCN1.O=CO [γ-butyrolactam formate]" unit_abbrev=m/s assay_result=1515.7

====

Conditions: 328.15 K; 100 kPa; Liquid; Vibrating tube method
Reported mass density values are given for each entry in this list.
readout label: mass density (kg/m3)

molecule="CC(=O)O.O=C1CCCN1 [γ-butyrolactam acetate]" assay_result=1068.69
molecule="O=C1CCCCCN1.O=CO [ε-caprolactam formate]" assay_result=1057.77
molecule="O=C1CCCN1.O=CO [γ-butyrolactam formate]" assay_result=1108.35
molecule="CCCCCC(=O)O.O=C1CCCCCN1 [ε-caprolactam hexanoate]" assay_result=971.24
molecule="CCCCCC(=O)O.O=C1CCCN1 [γ-butyrolactam hexanoate]" assay_result=990.08
molecule="CC(=O)O.O=C1CCCCCN1 [ε-caprolactam acetate]" assay_result=1031.37

====

Conditions: 328.15 K; 100 kPa; Liquid; Falling or rolling sphere viscometry
Label rule, in plain words: viscosity of 7 mPa·s and up is Met, under 7 mPa·s is Not met.

compound="O=C1CCCN1.O=CO [γ-butyrolactam formate]" group_label="Not met"
compound="CCCCCC(=O)O.O=C1CCCCCN1 [ε-caprolactam hexanoate]" group_label=Met
compound="CC(=O)O.O=C1CCCCCN1 [ε-caprolactam acetate]" group_label=Met
compound="CC(=O)O.O=C1CCCN1 [γ-butyrolactam acetate]" group_label="Not met"
compound="O=C1CCCCCN1.O=CO [ε-caprolactam formate]" group_label=Met
compound="CCCCCC(=O)O.O=C1CCCN1 [γ-butyrolactam hexanoate]" group_label="Not met"

====

Details: 303.15 K; 100 kPa; Liquid; Sing-around technique in a fixed-path interferometer
Reported speed of sound values are given for each entry in this list.
readout label: speed of sound (m/s)

compound="O=C1CCCN1.O=CO [γ-butyrolactam formate]" readout_label="speed of sound" unit_abbrev=m/s assay_result=1500
compound="CC(=O)O.O=C1CCCCCN1 [ε-caprolactam acetate]" readout_label="speed of sound" unit_abbrev=m/s assay_result=1489.7
compound="CCCCCC(=O)O.O=C1CCCCCN1 [ε-caprolactam hexanoate]" readout_label="speed of sound" unit_abbrev=m/s assay_result=1439
compound="CCCCCC(=O)O.O=C1CCCN1 [γ-butyrolactam hexanoate]" readout_label="speed of sound" unit_abbrev=m/s assay_result=1396.2
compound="CC(=O)O.O=C1CCCN1 [γ-butyrolactam acetate]" readout_label="speed of sound" unit_abbrev=m/s assay_result=1480.9
compound="O=C1CCCCCN1.O=CO [ε-caprolactam formate]" readout_label="speed of sound" unit_abbrev=m/s assay_result=1520.2

====

Conditions: 293.15 K; 100 kPa; Liquid; Vibrating tube method
Reported mass density values are given for each entry in this list.
readout label: mass density (kg/m3)

compound="CC(=O)O.O=C1CCCCCN1 [ε-caprolactam acetate]" unit_abbrev=kg/m3 assay_result=1060.03
compound="CCCCCC(=O)O.O=C1CCCCCN1 [ε-caprolactam hexanoate]" unit_abbrev=kg/m3 assay_result=998.59
compound="O=C1CCCCCN1.O=CO [ε-caprolactam formate]" unit_abbrev=kg/m3 assay_result=1087.05
compound="CCCCCC(=O)O.O=C1CCCN1 [γ-butyrolactam hexanoate]" unit_abbrev=kg/m3 assay_result=1018.78
compound="CC(=O)O.O=C1CCCN1 [γ-butyrolactam acetate]" unit_abbrev=kg/m3 assay_result=1099.8
compound="O=C1CCCN1.O=CO [γ-butyrolactam formate]" unit_abbrev=kg/m3 assay_result=1140.78

====

Reported viscosity values are given for each entry in this list.
Settings: 308.15 K; 100 kPa; Liquid; Falling or rolling sphere viscometry
Numbers after ± are expanded uncertainties.
readout label: viscosity

compound="CCCCCC(=O)O.O=C1CCCN1 [γ-butyrolactam hexanoate]" assay_result="8.63 ± 0.25 mPa·s"
compound="CC(=O)O.O=C1CCCCCN1 [ε-caprolactam acetate]" assay_result="17.03 ± 0.5 mPa·s"
compound="O=C1CCCCCN1.O=CO [ε-caprolactam formate]" assay_result="15.14 ± 0.44 mPa·s"
compound="CCCCCC(=O)O.O=C1CCCCCN1 [ε-caprolactam hexanoate]" assay_result="18.11 ± 0.53 mPa·s"
compound="CC(=O)O.O=C1CCCN1 [γ-butyrolactam acetate]" assay_result="5.72 ± 0.15 mPa·s"
compound="O=C1CCCN1.O=CO [γ-butyrolactam formate]" assay_result="4.64 ± 0.12 mPa·s"

====

Settings: 318.15 K; 100 kPa; Liquid; Falling or rolling sphere viscometry
Label rule, in plain words: viscosity of 10 mPa·s and up is yes, under 10 mPa·s is no.

molecule="CC(=O)O.O=C1CCCN1 [γ-butyrolactam acetate]" group_label=no
molecule="CC(=O)O.O=C1CCCCCN1 [ε-caprolactam acetate]" group_label=yes
molecule="O=C1CCCN1.O=CO [γ-butyrolactam formate]" group_label=no
molecule="CCCCCC(=O)O.O=C1CCCCCN1 [ε-caprolactam hexanoate]" group_label=yes
molecule="CCCCCC(=O)O.O=C1CCCN1 [γ-butyrolactam hexanoate]" group_label=no

====

Details: 323.15 K; 100 kPa; Liquid; Vibrating tube method
Reported mass density values are given for each entry in this list.
readout label: mass density (kg/m3)

compound="O=C1CCCCCN1.O=CO [ε-caprolactam formate]" assay_result=1061.95
compound="CCCCCC(=O)O.O=C1CCCN1 [γ-butyrolactam hexanoate]" assay_result=994.17
compound="O=C1CCCN1.O=CO [γ-butyrolactam formate]" assay_result=1112.99
compound="CC(=O)O.O=C1CCCN1 [γ-butyrolactam acetate]" assay_result=1073.12
compound="CCCCCC(=O)O.O=C1CCCCCN1 [ε-caprolactam hexanoate]" assay_result=975.15
compound="CC(=O)O.O=C1CCCCCN1 [ε-caprolactam acetate]" assay_result=1035.46

====

Conditions: 313.15 K; 100 kPa; Liquid; Vibrating tube method
readout label: mass density (kg/m3)

compound="CCCCCC(=O)O.O=C1CCCCCN1 [ε-caprolactam hexanoate]" readout_label="mass density" unit_abbrev=kg/m3 assay_result=982.97
compound="CCCCCC(=O)O.O=C1CCCN1 [γ-butyrolactam hexanoate]" readout_label="mass density" unit_abbrev=kg/m3 assay_result=1002.37
compound="CC(=O)O.O=C1CCCCCN1 [ε-caprolactam acetate]" readout_label="mass density" unit_abbrev=kg/m3 assay_result=1043.65
compound="O=C1CCCCCN1.O=CO [ε-caprolactam formate]" readout_label="mass density" unit_abbrev=kg/m3 assay_result=1070.32
compound="O=C1CCCN1.O=CO [γ-butyrolactam formate]" readout_label="mass density" unit_abbrev=kg/m3 assay_result=1122.25
compound="CC(=O)O.O=C1CCCN1 [γ-butyrolactam acetate]" readout_label="mass density" unit_abbrev=kg/m3 assay_result=1082.03

====

Settings: 303.15 K; 100 kPa; Liquid; Falling or rolling sphere viscometry
Reported viscosity values are given for each entry in this list.
readout label: viscosity (mPa·s)

molecule="O=C1CCCCCN1.O=CO [ε-caprolactam formate]" assay_result=18.86
molecule="CC(=O)O.O=C1CCCCCN1 [ε-caprolactam acetate]" assay_result=21.92
molecule="CCCCCC(=O)O.O=C1CCCN1 [γ-butyrolactam hexanoate]" assay_result=10.16
molecule="CC(=O)O.O=C1CCCN1 [γ-butyrolactam acetate]" assay_result=6.66
molecule="CCCCCC(=O)O.O=C1CCCCCN1 [ε-caprolactam hexanoate]" assay_result=23.4
molecule="O=C1CCCN1.O=CO [γ-butyrolactam formate]" assay_result=5.32
